biological target: BCRP (Homo sapiens); test: BCRP substrate assessment, BCRP-MDCK monolayers; format: in vitro ADME; conditions: dog, pH 7.4, BCRP-MDCK; Cladribine; B-to-A; read-out: Papp AVG
Sequence (Q9UNQ0 whole entry): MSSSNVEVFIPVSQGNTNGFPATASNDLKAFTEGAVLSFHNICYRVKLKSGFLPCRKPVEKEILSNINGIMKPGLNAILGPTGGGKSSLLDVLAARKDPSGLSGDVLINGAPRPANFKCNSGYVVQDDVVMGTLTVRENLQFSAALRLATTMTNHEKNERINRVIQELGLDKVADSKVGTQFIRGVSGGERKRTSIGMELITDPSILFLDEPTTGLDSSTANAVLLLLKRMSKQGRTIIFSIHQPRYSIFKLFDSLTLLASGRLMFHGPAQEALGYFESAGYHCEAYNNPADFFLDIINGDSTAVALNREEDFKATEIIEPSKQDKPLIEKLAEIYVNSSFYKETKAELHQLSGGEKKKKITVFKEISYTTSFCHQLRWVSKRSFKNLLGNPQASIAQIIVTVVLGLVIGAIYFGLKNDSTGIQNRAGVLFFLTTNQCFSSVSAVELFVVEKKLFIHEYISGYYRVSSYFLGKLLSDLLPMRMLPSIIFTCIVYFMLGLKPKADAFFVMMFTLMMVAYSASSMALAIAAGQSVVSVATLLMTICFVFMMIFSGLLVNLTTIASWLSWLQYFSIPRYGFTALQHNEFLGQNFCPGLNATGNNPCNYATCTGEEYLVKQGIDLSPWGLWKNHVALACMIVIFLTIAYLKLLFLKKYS
READOUT: Papp B→A at 120 min

COMPOUND	RESULT
Nc1nc(Cl)nc2c1ncn2[C@H]1C[C@H](O)[C@@H](CO)O1 [Cladribine, cladribine]	17.6 ×10⁻⁶ cm/s

###

target: CYP2D6 (Homo sapiens, UniProt P10635); assay: CYP inhibition in human liver microsomes; type: in vitro ADME; design: from tissue; host or cells: pooled human liver microsomes, 200 donors; conditions: both sexes, pooled human liver microsomes, pH 7.4, HLM, 10.0 μM, read-out: % of Control Enzyme Activity
Sequence (P10635 whole entry): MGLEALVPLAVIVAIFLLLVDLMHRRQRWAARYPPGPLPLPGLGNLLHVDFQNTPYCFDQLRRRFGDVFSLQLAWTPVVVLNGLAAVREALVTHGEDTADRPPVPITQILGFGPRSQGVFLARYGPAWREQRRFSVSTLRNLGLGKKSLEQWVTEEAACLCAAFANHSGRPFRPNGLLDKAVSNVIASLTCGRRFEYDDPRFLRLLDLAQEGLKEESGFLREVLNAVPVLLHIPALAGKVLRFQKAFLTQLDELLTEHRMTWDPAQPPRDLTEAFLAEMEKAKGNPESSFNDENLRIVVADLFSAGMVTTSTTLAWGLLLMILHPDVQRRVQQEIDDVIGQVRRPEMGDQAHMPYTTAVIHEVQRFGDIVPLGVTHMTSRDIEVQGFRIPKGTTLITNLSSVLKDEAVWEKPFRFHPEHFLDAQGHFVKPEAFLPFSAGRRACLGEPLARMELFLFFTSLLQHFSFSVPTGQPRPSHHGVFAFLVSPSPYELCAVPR
READOUT: activity at 20 min, 10 µM (%)

ENTRY_SMILES	TESTED_ON	READOUT	QUANTITATIVE_READOUT
C=C[C@H]1C[N@@]2CC[C@H]1C[C@@H]2[C@@H](O)c1ccnc2ccc(OC)cc12	CYP2D6 (Homo sapiens, UniProt P10635)	activity at 20 min, 10 µM	7.28

###

target: CYP2B6 (Homo sapiens); assay: time-dependent CYP inhibition in human liver microsomes (IC50 shift); conditions: both, pooled human liver microsomes, pH 7.4, % of Control Enzyme Activity, pre-incubation 30 min +NADPH, 0.370 μM

ENTRY_SMILES	activity at 20 min, 0.37 µM
S=P(N1CC1)(N1CC1)N1CC1	86.4%

###

test: in vitro; settings: male, CD-1, mouse, plasma, % Bound Mean

COMPOUND	fraction unbound at 4 h, 10 μM
CC(=O)CC(c1ccccc1)c1c(O)c2ccccc2oc1=O (stereo not shown)	0.217

###

experiment: Compound 2 and metabolites in rat plasma, 50 mg/kg PO QD×10; assay type: in vivo; conditions: rat plasma; Compound 2 50 mg/kg PO QD×1; 2 h

ENTRY_SMILES	UNIT_LABEL	Average Concentration
CCn1c(C#CCNc2ccccc2)cc2cc(CNCc3ccccc3)ccc21	ng/mL	64.98
CCn1c(C#CCNc2ccc(F)cc2)cc2cc(CNC)ccc21	ng/mL	682.50
CCn1c(C#CCNc2ccc(C)nc2)cc2cc(CNC3CCOCC3)ccc21	ng/mL	58.20
CCn1c(C#CCNc2ccc(Cl)cc2)cc2cc(CNC3CCN(C)CC3)ccc21	ng/mL	2.20

###

target: CYP2B6 (Homo sapiens, UniProt P20813); assay: CYP inhibition in human liver microsomes; type: in vitro ADME; parameters: from tissue; host or cells: pooled human liver microsomes, 200 donors; details: both sexes, pooled human liver microsomes, pH 7.4, HLM, 0.123 μM, read-out: % of Control Enzyme Activity
Sequence (P20813 whole entry): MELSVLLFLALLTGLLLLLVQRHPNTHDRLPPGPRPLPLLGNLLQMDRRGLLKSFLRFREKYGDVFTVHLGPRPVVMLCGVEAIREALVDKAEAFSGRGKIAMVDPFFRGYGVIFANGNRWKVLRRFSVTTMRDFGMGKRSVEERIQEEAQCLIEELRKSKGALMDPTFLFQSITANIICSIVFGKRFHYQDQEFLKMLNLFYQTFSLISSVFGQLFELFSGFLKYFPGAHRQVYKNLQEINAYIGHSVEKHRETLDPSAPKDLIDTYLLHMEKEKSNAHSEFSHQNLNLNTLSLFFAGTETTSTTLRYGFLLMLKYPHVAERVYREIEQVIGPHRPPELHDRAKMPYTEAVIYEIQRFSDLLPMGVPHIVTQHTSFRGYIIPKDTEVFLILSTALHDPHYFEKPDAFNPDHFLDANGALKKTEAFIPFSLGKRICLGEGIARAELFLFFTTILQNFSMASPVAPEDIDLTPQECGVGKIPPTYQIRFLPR
READOUT: activity at 20 min, 0.123 µM (%)

ENTRY_SMILES	TESTED_ON	QUANTITATIVE_READOUT
S=P(N1CC1)(N1CC1)N1CC1	CYP2B6 (Homo sapiens, UniProt P20813)	97

###

biological target: BCRP (Homo sapiens); assay: in vitro; conditions: Caco-2, pH 7.4, Papp R2, Caco-2, Cladribine alone, B-to-A
READOUT: Papp B→A (×10⁻⁶ cm/s)

ENTRY_SMILES	QUANTITATIVE_READOUT
Nc1nc(Cl)nc2c1ncn2[C@H]1C[C@H](O)[C@@H](CO)O1	19.3
